test system: CCRF-CEM leukemia; assay: NCI tumour cell line growth inhibition, 48 h
parameter: TGI

| compound | measurement |
| --- | --- |
| O=CCCCCCOCc1ccccc1 | > 69.9 µM |
| O=C1NC(O)n2c(=O)[nH]c(=O)n21 (stereo not drawn) | > 100 µM |
| COc1cc(C)c2c(c1)CN1CN2Cc2cc(OC)cc(C)c21 | > 100 µM |
| C=C1C(=O)O[C@@H]2/C=C(/C)[C@@H](OC(C)=O)C/C=C(\C)C(O)[C@@H](OC(=O)/C(C)=C\C)C12 (stereo partly drawn) | 57.2 µM |
| CC(C)Cc1cnc(CC(C)C)c(=O)[nH]1 | > 100 µM |
| N#CCCC(C=O)(CCC#N)CCC#N | > 100 µM |
| OCc1ccc(N(Cc2ccc(F)cc2)Cc2ccc(F)cc2)cc1Cl | 33.9 µM |
| O=[N+]([O-])c1ccc(-n2nc3ccc4nonc4c3n2)cc1 | > 100 µM |
| COC1/C=C/C(C)C(O)CC(O)/C=C/C(C)C(C(C)C(OC)C(C)CCC(=O)C(C)C(C/C=C/N(C)C=O)OC)OC(=O)/C=C/C=C(\C)CC(OC)CC2=CC(=O)O[C@@H](C(C)C(OC)C1)[C@H]2O (stereo partly drawn) | 2.98 µM |
| N#Cc1nc(CCc2nc(C#N)c(N)o2)oc1N | > 10 µM |
| CSC(SC)=C(C(=O)c1ccc(Cl)cc1)n1c(=O)sc2cc(Br)ccc21 | > 100 µM |
| COC1(OC)C2(Cl)C3=CCCC=C3C1(Cl)C(Cl)=C2Cl | 42.4 µM |
| CCOP(=O)(/C=C/n1cc(C)c(=O)[nH]c1=O)OCC | > 100 µM |
| CC1CCC2C(C)C(=O)OC2C2(C)C(=O)C=CC12 (stereo not drawn) | > 10 µM |
| CCCCNC(c1ccc(Cl)cc1)C(O)c1ccc(Cl)cc1 (stereo not drawn) | 8.65 µM |
| COc1ccc(-n2c(=S)sc3c(Cl)nc(C)nc32)c(OC)c1 | 7.45 µM |
| Nc1cc2c3c(cccc3c1)C(=O)N(CCN1CCCC1)C2=O | > 35.6 µM |
| COC(=O)C1OC(O[C@H]2CC[C@]3(C)[C@H]4CC=C5[C@@H]6CC(C)(C)CC[C@]6(C(=O)OC6OCC(O)C(O)C6OC6OC(C)C(OC7OCC(O)C(O)C7O)C(O)C6O)[C@H](O)C[C@@]5(C)[C@]4(C)CC[C@H]3C2(C)C)C(O)C(O)C1O (stereo partly drawn) | > 100 µM |

* * *

tested on: MOLT-4 leukemia; assay: NCI tumour cell line growth inhibition, 48 h
parameter: TGI

| compound | parameter | measurement |
| --- | --- | --- |
| O=c1c(Cc2ccccc2)c(O)cc2n1CCC2 | TGI | > 100 µM |
| CCCCCCCC(=O)OCC/C=C/C1OC1C1OC(=O)/C=C\C=C\C(=O)N(C(C)=O)C(=O)/C=C(/C)CCC2OC2C1OC(=O)NC(C)=O (stereo unspecified) | TGI | > 25 µM |
| COP(=O)(OC)OCN(C)CC/C=C(\C)CC/C=C(\C)CCC=C(C)C | TGI | 28.9 µM |
| N=C1CCCC1C(=S)SCCC(N)=O (stereo unspecified) | TGI | > 100 µM |
| Clc1ccc2c(NCCCCCCNc3ccnc4cc(Cl)ccc34)ccnc2c1 | TGI | 8.09 µM |
| C=C1C(=O)O[C@@H]2/C=C(/C)[C@@H](OC(C)=O)C/C=C(\C)C(O)[C@@H](OC(=O)/C(C)=C\C)C12 (stereo partly specified) | TGI | 74.6 µM |
| Cn1c(=O)c2c(nc3[nH]c(=O)c(Br)cn32)n(C)c1=O | TGI | > 100 µM |
| COc1ccc(-n2cc(-c3ccc(OC)c(OC)c3)[nH]c2=O)cc1 | TGI | > 100 µM |
| N#C/C(=C\c1ccc2[nH]ccc2c1)C(=O)NCCCCNC(=O)/C(C#N)=C/c1ccc2[nH]ccc2c1 | TGI | > 31.6 µM |
| Cc1c(C)c2c(c(N)c1C#N)C(=O)N(N)C2=O | TGI | > 100 µM |
| Cc1ccc(/C(=N/Nc2ccc([N+](=O)[O-])cc2)Sc2cc(Cl)c(C)cc2S(N)(=O)=O)cc1 | TGI | 12.3 µM |
| CN1CCN(C(=O)c2cn(Cc3cncn3Cc3ccc4c(c3)OCO4)cc2-c2cccc3ccccc23)CC1 | TGI | 33.6 µM |
| CCOP(=O)(/C=C/n1cc(C)c(=O)[nH]c1=O)OCC | TGI | > 100 µM |
| C/C(=N/NC(=S)Nc1ccccc1)c1nc2ccc(Cl)cc2[nH]1 | TGI | 1.1 µM |
| N/N=C(/Cc1ccccc1)NNO | TGI | > 100 µM |
| CN(C)C(=S)/N=c1\ss/c(=N\C(=S)N(C)C)n1-c1cccc(Cl)c1 | TGI | > 100 µM |

* * *

tested on: HOP-62 NSCLC; assay: NCI tumour cell line growth inhibition, 48 h
parameter: TGI

| compound | parameter | measurement |
| --- | --- | --- |
| N[C@@H](CCC(=O)NC(Cc1ccccc1)C(=O)NCP(=O)(O)O)C(=O)O (stereo partly drawn) | TGI | > 100 µM |
| Cn1c(=O)oc2cc(C3CCC(=O)N3Cc3csc(-c4ccccc4)n3)ccc21 (stereo not drawn) | TGI | > 100 µM |
| COc1ccc(N2C(=O)C3c4[nH]c5c(C)cccc5c4C4CCC(C(C)C)CC4C3C2=O)cc1 (stereo not drawn) | TGI | 22.7 µM |
| CC1=C(CO)C(=O)OC(C(C)C2CCC3C4CC5OC56C(O)C(N5CC5)=CC(=O)C6(C)C4CCC23C)C1 (stereo not drawn) | TGI | 40.7 µM |
| C=C(C)C1CC(=O)C(C)=C(O)C1 (stereo not drawn) | TGI | > 100 µM |
| COC(=O)C1C=CCC2CCCCC21N1CCCC1 (stereo not drawn) | TGI | > 100 µM |
| COC(=O)C1CC(c2ccc(OC)c(OC)c2)OC1=O (mixture of isomers) | TGI | > 100 µM |
| CC(C)(C)C(=O)Nc1c(C=O)ccc2[nH]cnc12 | TGI | > 100 µM |
| CN(C)CCC(=O)Nc1ccc(-n2cc(-c3cccc(NC(=S)Nc4cccc(-c5cn(-c6ccc(NC(=O)CCN(C)C)cc6)nn5)c4)c3)nn2)cc1 | TGI | > 100 µM |
| O=C(CNc1ccccc1C(=O)O)Nn1cnc2ccc(S(=O)(=O)Nc3ccccc3C(=O)O)cc2c1=O | TGI | > 100 µM |
| O=C(O)c1c(CC(Cc2ccc3c(c2)CCC3)C(=O)O)ccc2c1CCC2 (stereo not drawn) | TGI | > 100 µM |
| COc1cc2c(cc1C)NC(=O)/C2=C/c1ccnc2ccccc12 | TGI | > 50 µM |
| C[C@@]1(F)[C@H](O)[C@@H](CO)O[C@H]1n1ccc(=O)[nH]c1=O | TGI | > 100 µM |
| O=c1c(Cc2ccc3c(c2)OCO3)nnc2sc(-c3cc(F)c(Cl)cc3Cl)nn12 | TGI | 64.7 µM |
| CC1OC(OC2C(O[C@H]3CC[C@@]4(C)C(=CC[C@H]5[C@@H]6C[C@@H]7O[C@]8(CC[C@@H](C)CO8)[C@@H](C)[C@@H]7[C@@]6(C)CC[C@@H]54)C3)OC(CO)C(O)C2OC2OC(CO)C(O)C(O)C2O)C(O)C(O)C1O (stereo partly drawn) | TGI | 4.21 µM |
| COc1cc(C)c2c(c1)CN1CN2Cc2cc(OC)cc(C)c21 | TGI | > 100 µM |
| NC(N)=N/N=C\c1ccc(OCc2ccccc2)cc1 | TGI | 10.5 µM |
| C/C(=N/NC(=S)Nc1ccccc1)c1nc2ccc(Cl)cc2[nH]1 | TGI | 0.935 µM |
| NC(=O)[C@H](Cc1ccc(O)cc1)Nc1c(O)c2c(c(O)c1Cl)C(=O)C=CC2=O | TGI | > 10 µM |
| CSc1nc(Nc2cccc(NC(=O)CCl)c2)c(C#N)c(-c2cccc([N+](=O)[O-])c2)n1 | TGI | 11.4 µM |
| O=C1c2ccccc2-c2nc3ccncc3n21 | TGI | > 100 µM |
| O=c1c(Cc2ccccc2)c(O)cc2n1CCC2 | TGI | > 100 µM |
| N#Cc1nc(CCc2nc(C#N)c(N)o2)oc1N | TGI | > 10 µM |
| O=C1NC(O)c2cc3ccccc3cc2O1 (stereo not drawn) | TGI | > 100 µM |
| COc1nc(Cl)nc(N[C@H](C)c2c3ccccc3cc3ccccc23)n1 | TGI | 31.5 µM |
| CCC1(O)CC(CCN(Cc2ccccc2)C(=O)OCc2ccccc2)C(OCc2ccccc2)C1O (stereo not drawn) | TGI | 29.6 µM |
| CCCCNC(c1ccc(Cl)cc1)C(O)c1ccc(Cl)cc1 (stereo not drawn) | TGI | 9.71 µM |
| COC1(OC)C2(Cl)C3=CCCC=C3C1(Cl)C(Cl)=C2Cl | TGI | 71.1 µM |
| CSC(SC)=C(C(=O)c1ccc(Cl)cc1)n1c(=O)sc2cc(Br)ccc21 | TGI | > 100 µM |
| O=C1[C@@H]2[C@@H](CN3CN(c4ccccc4)N=C(c4ccccc4)[C@@]23c2ccccc2)C(=O)N1c1ccccc1 | TGI | 30 µM |
| CC(C)C[C@@H](N)[C@@H](O)C(=O)N[C@H](C(=O)N[C@H](C(=O)N[C@@H](CC(=O)O)C(=O)O)C(C)C)C(C)C | TGI | > 20 µM |
| O=C(Nc1ccc(Cl)cc1C(F)(F)F)C(=O)Nn1c(=S)[nH]c2ccccc2c1=O | TGI | > 100 µM |
| Nc1[nH]c(=O)nc2c1ncn2C1OC(CO)C(O)C1O (stereo not drawn) | TGI | > 100 µM |
